Recorded values, source paper PMC4794603.

This section presents compounds with their documented Kd values.
target: CYP107W1 W178G mutant (Streptomyces avermitilis, UniProt Q93HJ0, W178G); test: UV-vis spectral binding titration
Sequence (Q93HJ0 1-404, stated change not applied): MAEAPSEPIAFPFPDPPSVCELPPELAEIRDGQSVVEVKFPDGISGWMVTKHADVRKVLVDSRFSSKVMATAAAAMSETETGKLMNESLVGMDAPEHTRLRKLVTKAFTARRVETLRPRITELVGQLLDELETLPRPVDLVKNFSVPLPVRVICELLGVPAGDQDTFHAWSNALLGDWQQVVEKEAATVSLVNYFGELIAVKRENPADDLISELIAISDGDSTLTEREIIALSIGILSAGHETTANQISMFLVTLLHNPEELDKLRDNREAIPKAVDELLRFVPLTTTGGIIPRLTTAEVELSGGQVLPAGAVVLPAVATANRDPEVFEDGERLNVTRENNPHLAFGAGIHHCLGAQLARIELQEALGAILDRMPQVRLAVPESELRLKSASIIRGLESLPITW
Recorded metric: Kd (µM)

[[record]]
compound = "Clc1ccc(COC(Cn2ccnc2)c2ccc(Cl)cc2Cl)cc1 (centres unmarked)"
value_observed = 5.3

[[record]]
compound = "Clc1ccc(COC(Cn2ccnc2)c2ccc(Cl)cc2Cl)c(Cl)c1 (centres unmarked)"
value_observed = 3.1

